- target-entity: Casein kinase I isoform gamma-3 (Homo sapiens);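 further: reported value is the mean percent inhibition of the kinase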
- recorded-conditions: at 0.1 µM
observable: inhibition
Write your answer as a measured quantity: the number, then the unit.

Asked: For CC(=O)Nc1cccc(C#Cc2cncnc2Nc2ccc(OCc3cccc(F)c3)c(Cl)c2)n1 , what is its reported inhibition?
Given back: -0.5%

Asked: For COc1cc2ncn(-c3cc(O[C@@H](C)c4ccccc4Cl)c(C(N)=O)s3)c2cc1OC , what is its reported inhibition?
Given back: 3.46%

Asked: For CCc1cccc(NC(=O)Nc2ccc(Oc3ccc4nc(NC(=O)OC)[nH]c4c3)cc2)c1 , what is its reported inhibition?
Given back: 0.13%

Asked: For CC(C)=Cc1cccc2c1/C(=N/Nc1ccc(S(N)(=O)=O)cc1)C(=O)N2 , what is its reported inhibition?
Given back: -0.08%

Asked: For Cc1nnc(-c2ccc(C)c(-c3ccc(C(=O)Nc4cccc(C#N)c4)cc3)c2)o1 , what is its reported inhibition?
Given back: 1.46%

Asked: For COC(=O)Nc1nc2cc(Oc3ccc(NC(=O)Nc4cccc(C(=O)O)c4)cc3)ccc2[nH]1 , what is its reported inhibition?
Given back: -2.29%
